Reported protein stability index values for a set of variants
B1: EFHC1 (parent)
chain: NIYYYLEDDSMSVIEPVVENSGIL

- Variants of: B1
- assay_summary: protein stability index of a GFP-peptide fusion (GPS, HEK-293T) (PSI 1-6); higher = more stable;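 note: lentivirally expressed fusions sorted by FACS into six bins by GFP to DsRed ratio, PSI derived from sequencing read proportions per bin multiplied by bin number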
- particulars: c terminus: a fixed tail appended
Answer using only a numeral; do not append any unit.

Input: Item under review: TIYYYLEDDSMSVIEPVVENSGIL [N1T] . Reported protein stability index?
Output: 1.4

Input: Try this variant next: NAYYYLEDDSMSVIEPVVENSGIL [I2A]
Output: 2.86

Input: How about this variant: NIYYYLEDDSISVIEPVVENSGIL [M11I]
Output: 2.51

Input: Next variant: NIYYYLEDCSMSVIEPVVENSGIL [D9C]
Output: 1.76

Input: Also NIYYYLEDDSMSVIEPVVECSGIL [N20C] , if possible.
Output: 1.93

Input: Same question for NIYYYLEDDSMSVIEPVVENDGIL [S21D] please.
Output: 2.4

Input: Same read-out for NIYYYLEDDSMSVIEPVVETSGIL [N20T] ?
Output: 1.71

Input: Follow-up item: NIYKYLEDDSMSVIEPVVENSGIL [Y4K]
Output: 2.66

Input: Similarly, NHYYYLEDDSMSVIEPVVENSGIL [I2H] ?
Output: 2.72

Input: Further, for NIYYYLEDDSMSVIEPRVENSGIL [V17R] ?
Output: 1.98

Input: Would you kindly repeat that for NIYYYLEDDSMSVIEPVVENSGHL [I23H] ?
Output: 2.43

Input: // repeat for NICYYLEDDSMSVIEPVVENSGIL [Y3C] and report
Output: 2.9

Input: Lookup NFYYYLEDDSMSVIEPVVENSGIL [I2F]
Output: 1.82
